test: chemical genetic growth profiling, strain panel (AID 1159580);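 further: tested at 20 µM; growth read once vehicle control cultures reached saturation at 30 °C; 1 = growth at the plate median or of vehicle wells; lower values mean less growth of the strain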; conditions: S. cerevisiae deletion strains, growth OD, locus YPR141C, strain kar3, active compounds read low
Among all 5,500 compounds or so, about 2,000 (36%) were called active. Not shown: some 18% with an inconclusive outcome. Some of the results follow.
property_name: normalized growth
Reply: number alone, nothing else.

So for CC(=O)Oc1ccc(/C=C/c2cc(OC(C)=O)cc(OC(C)=O)c2)cc1 , the logged normalized growth turned out to be 1.01

So for COC(=O)c1c(C)c2c(c(C)c1OC)OC(=O)c1c(C)c(Cl)c(OC)c(Cl)c1O2 , the logged normalized growth turned out to be 1.02

So for CC(=O)Oc1cccc(O)c1 , the logged normalized growth turned out to be 1.01

So for CCCc1c(OCCCCc2nn[nH]n2)ccc(C(C)=O)c1O , the logged normalized growth turned out to be 1.01

So for COc1c(C)c2c(c(C)c1Cl)Oc1c(Cl)c(OC)c(Cl)c(C)c1C(=O)O2 , the logged normalized growth turned out to be 1.01

So for CC(=O)Oc1ccc(C(c2ccc(OC(C)=O)cc2)c2ccccn2)cc1 , the logged normalized growth turned out to be 0.974

So for CC(C)=CCc1c2c(c3occ(-c4ccc(O)cc4)c(=O)c3c1O)C=CC(C)(C)O2 , the logged normalized growth turned out to be 1.01

So for COC(=O)c1c(C)c2c(c(C)c1O)OC(=O)c1c(C)c(Cl)c(O)c(Cl)c1O2 , the logged normalized growth turned out to be 0.995

So for COC(=O)c1c(OC)cc2c(c1C)Oc1c(Cl)c(O)c(Cl)c(C)c1C(=O)O2 , the logged normalized growth turned out to be 0.968

So for CC1=CC(=O)c2ccccc2C1=O , the logged normalized growth turned out to be 0.859

So for NS(=O)(=O)c1cc2c(cc1Cl)NC(CSCc1ccccc1)=NS2(=O)=O , the logged normalized growth turned out to be 0.973

* * *

test: chemical genetic growth profiling, strain panel (AID 1159580);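 further: tested at 20 µM; growth read once vehicle control cultures reached saturation at 30 °C; 1 = growth at the plate median or of vehicle wells; lower values mean less growth of the strain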; details: S. cerevisiae deletion strains, growth OD, locus YKL048C, strain ELM1, active compounds read low
In all, about 5,500 compounds went through this assay and about 2,000 (36%) were called active. Inconclusive results (about 18%) are left out. This is one part of the list.
property_name: normalized growth
Reply: number alone, nothing else.

So for Cc1onc(-c2c(Cl)cccc2Cl)c1C(=O)O/N=C(/N)Cc1ccc(C(C)(C)C)cc1 , the logged normalized growth turned out to be 0.999

So for O=S(=O)(Nc1ccccc1Oc1ccccc1)c1ccc(-c2ccno2)s1 , the logged normalized growth turned out to be 0.932

So for Cc1nn(-c2cccc(Cl)c2)c2oc(=O)cc(C(F)(F)F)c12 , the logged normalized growth turned out to be 0.753

So for COC(=O)C1=C(Nc2ccccc2NS(=O)(=O)c2ccc(C(F)(F)F)cc2Cl)CSC1 , the logged normalized growth turned out to be 0.945

So for Cc1ccc(-n2cccc2)c(NS(=O)(=O)c2ccc(-c3ccno3)s2)c1 , the logged normalized growth turned out to be 0.924

* * *

assay: chemical genetic growth profiling, strain panel (AID 1159580);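 further: tested at 20 µM; growth read once vehicle control cultures reached saturation at 30 °C; 1 = growth at the plate median or of vehicle wells; lower values mean less growth of the strain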; conditions: S. cerevisiae deletion strains, growth OD, locus YMR277W, strain FCP1, active compounds read low
Among all 5,500 compounds or so, about 2,000 (36%) were called active. Another 18% or so got no clear call; they are omitted. The list shows a part of the results.
property_name: normalized growth
Reply: number alone, nothing else.

So for CC(=O)c1ccc(Cl)c(N=Cc2cc(Cl)cc(Cl)c2O)c1 , the logged normalized growth turned out to be 0.92

So for COC(=O)c1sccc1NS(=O)(=O)c1cc(Cl)cc(Cl)c1 , the logged normalized growth turned out to be 0.96

So for COC(=O)C1=C(Nc2ccccc2NS(=O)(=O)c2ccc(C(F)(F)F)cc2Cl)CSC1 , the logged normalized growth turned out to be 0.985

So for COc1c(Br)csc1C(=O)O/N=C(/N)c1cc(C(F)(F)F)cc(C(F)(F)F)c1 , the logged normalized growth turned out to be 0.99

So for O=C(NOC(=O)c1ccccc1)c1ccccc1 , the logged normalized growth turned out to be 0.0919

So for Cc1ccc(-c2csc(-c3ccncc3)n2)cc1 , the logged normalized growth turned out to be 0.865

So for Brc1ccc(-c2csc(-c3ccncc3)n2)cc1 , the logged normalized growth turned out to be 0.892

So for OC(COc1ccc(F)cc1)(c1ccc(Cl)cc1)c1ccc(Cl)cc1 , the logged normalized growth turned out to be 0.992

So for CCOC(=O)c1ccc(Cl)c(N=Cc2cc(Cl)cc(Cl)c2O)c1 , the logged normalized growth turned out to be 0.954

So for O=C(CSC1=NNC(c2ccccn2)S1)Nc1ccccc1 (stereo unspecified) , the logged normalized growth turned out to be 1

So for O=S(=O)(Oc1ccc(-c2csnn2)cc1)c1ccccc1Cl , the logged normalized growth turned out to be 0.965
